Record form. Attribute: pIC50. Fill in for each entry.
# system: recombinant human Cox-2 (r-hu Cox-2) (Homo sapiens, UniProt P35354)
# Sequence (P35354 18-604): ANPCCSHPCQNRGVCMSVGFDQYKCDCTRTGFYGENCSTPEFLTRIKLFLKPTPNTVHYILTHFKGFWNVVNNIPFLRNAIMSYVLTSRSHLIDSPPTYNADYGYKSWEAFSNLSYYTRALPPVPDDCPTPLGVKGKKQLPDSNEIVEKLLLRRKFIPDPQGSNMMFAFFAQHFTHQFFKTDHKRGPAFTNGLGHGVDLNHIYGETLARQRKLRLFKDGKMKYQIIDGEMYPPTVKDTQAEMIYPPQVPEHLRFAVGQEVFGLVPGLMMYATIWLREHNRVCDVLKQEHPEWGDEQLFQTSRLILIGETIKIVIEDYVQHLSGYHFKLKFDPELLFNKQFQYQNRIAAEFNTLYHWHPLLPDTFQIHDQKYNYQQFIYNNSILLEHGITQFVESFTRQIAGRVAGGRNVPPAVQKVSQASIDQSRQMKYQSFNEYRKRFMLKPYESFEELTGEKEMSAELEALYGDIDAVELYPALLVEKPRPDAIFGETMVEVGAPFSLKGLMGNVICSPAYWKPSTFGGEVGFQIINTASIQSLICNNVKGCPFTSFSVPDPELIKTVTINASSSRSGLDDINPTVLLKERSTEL
# test summary: Recombinant human PGHS-2 enzyme assay (RHUCX2)
# experimental parameters: read-out: RHUCX2 IC50 (parenthetical value)
pIC50 here: minus log base 10 of the concentration, concentration in moles per litre.

Observed pIC50, recombinant human Cox-2 (r-hu Cox-2) (Homo sapiens, UniProt P35354), "CN(C)c1cccc(Oc2c(-c3ccc(S(C)(=O)=O)cc3)cnn(-c3cccc(Cl)c3)c2=O)c1" : 6.05

Field pIC50 (system: recombinant human Cox-2 (r-hu Cox-2) (Homo sapiens, UniProt P35354)) for entry "CC(C)CCCOc1c(-c2ccc(S(C)(=O)=O)cc2)cnn(-c2ccc(F)c(F)c2)c1=O" = 6.91

Item "CC(C)CCCc1c(-c2ccc(S(C)(=O)=O)cc2)cnn(-c2ccc(F)cc2)c1=O" was tested on recombinant human Cox-2 (r-hu Cox-2) (Homo sapiens, UniProt P35354); the reported pIC50 is 6.49

Bench note, recombinant human Cox-2 (r-hu Cox-2) (Homo sapiens, UniProt P35354): "CS(=O)(=O)c1ccc(-c2cnn(-c3ccc(F)c(F)c3)c(=O)c2C2CCCCC2)cc1" , pIC50 reads 7.62

Note to self: pIC50 of "CS(=O)(=O)c1ccc(-c2cnn(-c3cccc(Cl)c3)c(=O)c2OCc2ccccc2)cc1" with recombinant human Cox-2 (r-hu Cox-2) (Homo sapiens, UniProt P35354) was 7.70

Reading of pIC50 for "CS(=O)(=O)c1ccc(-c2cnn(C3CCC3)c(=O)c2-c2ccc(F)cc2)cc1" with recombinant human Cox-2 (r-hu Cox-2) (Homo sapiens, UniProt P35354): 6.55

Assay recombinant human Cox-2 (r-hu Cox-2) (Homo sapiens, UniProt P35354), sample "CS(=O)(=O)c1ccc(-c2cnn(-c3ccc(F)cc3)c(=O)c2C2CCCCC2)cc1" , pIC50 read: 6.68

Form field, pIC50 with recombinant human Cox-2 (r-hu Cox-2) (Homo sapiens, UniProt P35354), item "CS(=O)(=O)c1ccc(-c2cnn(-c3cccc(Cl)c3)c(=O)c2-c2ccc(F)cc2)cc1" : 5.97

Entry "CS(=O)(=O)c1ccc(-c2cnn(C3Cc4ccccc4C3)c(=O)c2-c2ccc(F)cc2)cc1" under recombinant human Cox-2 (r-hu Cox-2) (Homo sapiens, UniProt P35354) had pIC50 of 6.32

Response field pIC50 (recombinant human Cox-2 (r-hu Cox-2) (Homo sapiens, UniProt P35354)) for item "CS(=O)(=O)c1ccc(-c2cnn(CC=C(Cl)Cl)c(=O)c2-c2ccc(F)cc2)cc1" : 7.77

The compound "CS(=O)(=O)c1ccc(-c2cnn(-c3cc(Cl)cc(Cl)c3)c(=O)c2-c2ccc(F)cc2)cc1" , when measured on recombinant human Cox-2 (r-hu Cox-2) (Homo sapiens, UniProt P35354), yielded pIC50 of 6.28

Form: item "Cc1cc(-c2c(-c3ccc(S(C)(=O)=O)cc3)cnn(-c3ccc(F)cc3)c2=O)ccc1F" ; test system recombinant human Cox-2 (r-hu Cox-2) (Homo sapiens, UniProt P35354); pIC50: 5.86

# value of pIC50, recombinant human Cox-2 (r-hu Cox-2) (Homo sapiens, UniProt P35354), item "CS(=O)(=O)c1ccc(-c2cnn(CC=Cc3ccccc3)c(=O)c2-c2ccc(F)cc2)cc1" = 6.24

Bench note, recombinant human Cox-2 (r-hu Cox-2) (Homo sapiens, UniProt P35354): entry "CS(=O)(=O)c1ccc(-c2cnn(Cc3ccccc3)c(=O)c2-c2ccc(C(F)(F)F)cc2)cc1" , its pIC50 = 6.44

The recorded pIC50 with recombinant human Cox-2 (r-hu Cox-2) (Homo sapiens, UniProt P35354) for "CS(=O)(=O)c1ccc(-c2cnn(-c3cccc(Cl)c3)c(=O)c2Cc2cccc(F)c2)cc1" was 7.55

Considering "CS(=O)(=O)c1ccc(-c2cnn(C3CCCC3)c(=O)c2-c2ccc(F)cc2)cc1" , its pIC50 with recombinant human Cox-2 (r-hu Cox-2) (Homo sapiens, UniProt P35354) was recorded as 8.30

Value sought: pIC50, system recombinant human Cox-2 (r-hu Cox-2) (Homo sapiens, UniProt P35354), item "CC(C)CCc1c(-c2ccc(S(N)(=O)=O)cc2)cnn(-c2ccc(F)cc2)c1=O" . Result: 7.23

Item: "CC(=O)CCOc1c(-c2ccc(S(C)(=O)=O)cc2)cnn(-c2ccc(F)c(F)c2)c1=O" | System: recombinant human Cox-2 (r-hu Cox-2) (Homo sapiens, UniProt P35354) | pIC50: 5.71
